Reference source: patent US20240376185A1

study-target: tetanus neurotoxin (TeNT), authentic tetanus holotoxin (Clostridium tetani, UniProt P04958 2-1315)
Sequence (P04958 2-457 limits assumed, chain 1 of 2): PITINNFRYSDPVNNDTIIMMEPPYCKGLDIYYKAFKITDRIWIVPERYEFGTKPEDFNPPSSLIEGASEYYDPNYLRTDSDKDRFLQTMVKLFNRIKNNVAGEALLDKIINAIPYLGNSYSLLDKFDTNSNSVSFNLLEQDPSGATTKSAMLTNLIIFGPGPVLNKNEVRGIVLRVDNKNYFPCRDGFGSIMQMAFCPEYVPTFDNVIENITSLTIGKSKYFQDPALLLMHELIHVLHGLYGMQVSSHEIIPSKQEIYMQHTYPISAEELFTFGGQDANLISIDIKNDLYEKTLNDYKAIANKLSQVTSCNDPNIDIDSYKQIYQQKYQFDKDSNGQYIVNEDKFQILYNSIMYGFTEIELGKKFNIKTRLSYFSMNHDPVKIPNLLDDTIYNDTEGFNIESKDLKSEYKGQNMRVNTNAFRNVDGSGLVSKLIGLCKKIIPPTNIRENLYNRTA
Sequence (P04958 458-1315 limits assumed, chain 2 of 2): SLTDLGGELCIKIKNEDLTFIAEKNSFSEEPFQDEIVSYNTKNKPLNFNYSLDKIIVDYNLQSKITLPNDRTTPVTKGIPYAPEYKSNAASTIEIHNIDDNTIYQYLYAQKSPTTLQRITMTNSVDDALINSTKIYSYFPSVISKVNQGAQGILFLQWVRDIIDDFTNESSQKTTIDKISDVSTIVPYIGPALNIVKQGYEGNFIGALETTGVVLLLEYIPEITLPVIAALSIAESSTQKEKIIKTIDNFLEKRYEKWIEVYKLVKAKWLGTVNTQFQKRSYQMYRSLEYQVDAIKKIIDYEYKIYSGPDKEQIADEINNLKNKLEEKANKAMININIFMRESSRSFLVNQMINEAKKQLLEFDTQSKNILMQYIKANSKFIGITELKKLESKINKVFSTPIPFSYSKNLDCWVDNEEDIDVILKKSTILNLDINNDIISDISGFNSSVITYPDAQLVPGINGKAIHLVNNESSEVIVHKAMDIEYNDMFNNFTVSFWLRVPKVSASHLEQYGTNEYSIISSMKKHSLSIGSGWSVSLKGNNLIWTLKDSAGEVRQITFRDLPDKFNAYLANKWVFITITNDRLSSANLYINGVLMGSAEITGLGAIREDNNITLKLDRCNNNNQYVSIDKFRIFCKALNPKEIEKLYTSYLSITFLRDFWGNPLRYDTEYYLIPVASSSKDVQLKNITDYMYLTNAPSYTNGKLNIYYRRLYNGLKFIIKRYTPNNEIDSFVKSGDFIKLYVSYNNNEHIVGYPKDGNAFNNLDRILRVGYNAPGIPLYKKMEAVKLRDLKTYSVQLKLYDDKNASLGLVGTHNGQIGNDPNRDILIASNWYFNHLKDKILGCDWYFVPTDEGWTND
method-notes: ELISA, directly coated TeNT, unlabelled binder
metric-name: maximal absorbance at 450 nm
Lab note: jot the number down without any unit.

Recorded results for 3 binders are shown here.
binder="SVT06L (VHH) VHH: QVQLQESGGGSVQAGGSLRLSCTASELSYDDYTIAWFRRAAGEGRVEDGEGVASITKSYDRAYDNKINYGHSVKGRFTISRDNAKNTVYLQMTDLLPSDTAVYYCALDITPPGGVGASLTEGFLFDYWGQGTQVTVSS" numeric_readout=1.39
binder="SVT08L (VHH) VHH: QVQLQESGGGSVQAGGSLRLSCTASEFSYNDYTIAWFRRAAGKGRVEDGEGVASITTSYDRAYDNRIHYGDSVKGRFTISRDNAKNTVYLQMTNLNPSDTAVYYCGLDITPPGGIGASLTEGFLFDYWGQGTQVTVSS" numeric_readout=1.37
binder="SVT15L-3FW4M (VHH) VHH: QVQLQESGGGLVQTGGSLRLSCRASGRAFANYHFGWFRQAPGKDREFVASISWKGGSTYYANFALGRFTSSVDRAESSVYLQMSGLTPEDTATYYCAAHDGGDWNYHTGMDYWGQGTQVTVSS" numeric_readout=0.817

Record SVT34L (VHH) VHH: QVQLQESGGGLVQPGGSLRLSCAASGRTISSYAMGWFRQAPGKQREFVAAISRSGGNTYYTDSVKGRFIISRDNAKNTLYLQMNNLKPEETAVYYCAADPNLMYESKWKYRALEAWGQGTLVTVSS . Reported maximal absorbance at 450 nm: 1.54

Record SVT05L (VHH) VHH: QVQLQESGGGLVQPGGSLRLSCSASGFSFTDDYGIGWFRSGPGKGREAVAPIADREAVAAIALSDGNTYYSASAKGRFTISRDNAKSTAYLQMNNLKPEDTATYYCAADFWGYGMSWPMATLWEYWGQGIQVTVSS . Reported maximal absorbance at 450 nm: 1.29

Record SVT13L (VHH) VHH: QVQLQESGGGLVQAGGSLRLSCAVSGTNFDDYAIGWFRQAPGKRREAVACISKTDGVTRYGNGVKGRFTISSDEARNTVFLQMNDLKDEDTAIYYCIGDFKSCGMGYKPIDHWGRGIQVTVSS . Reported maximal absorbance at 450 nm: 1.54

Record SVT20L (VHH) VHH: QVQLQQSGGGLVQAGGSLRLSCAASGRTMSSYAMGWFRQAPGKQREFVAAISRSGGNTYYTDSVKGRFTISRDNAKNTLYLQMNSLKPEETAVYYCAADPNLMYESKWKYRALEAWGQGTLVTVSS . Reported maximal absorbance at 450 nm: 1.54
